# System tested: 5HT3A receptors (Mus musculus)
# Construct: expressed in transfected cells; host or cells: HEK293 cells co-expressing TN-XXL
# Procedure summary: Intact cell competitive radioligand binding assay ([3H]-granisetron, SPA), LGIC-CNiFERs
# Study conditions: >10 = did not pass initial screen at 10 μM; read-out: Kd ± SD, 5HT3A
Can you tell me Kd for the items I'm about to list?
Numbers only; they are read as nM.

Recorded Kd for Oc1ccc(-c2cn(C3CN4CCC3CC4)nn2)cc1 (stereo not shown) , please?
540

# query: Kd of entry "c1cc2cc(-c3cn(CCN4CCCCC4)nn3)ccc2[nH]1"
5520

# Kd lookup, item Nc1ccc(-c2cn(C3CN4CCC3CC4)nn2)cc1 (stereo not shown)
1210

###

# System tested: α7-nAChRs (Homo sapiens)
# Construct: expressed in transfected cells; host or cells: HEKtsA201 cells co-expressing TN-XXL
# Procedure summary: FRET functional assay (agonist/antagonist) using LGIC-CNiFERs
# Assay type: cell-based
Measured endpoint: Fold increase in α7-nAChR agonist potency over lead compound TTIn-1 (fold)
Your answer is read as fold, so omit the unit and give the number.

Record c1cc2cc(-c3cn(C4CN5CCC4CC5)nn3)ccc2[nH]1 (stereo not shown) : what is its Fold increase in α7-nAChR agonist potency over lead compound TTIn-1 with α7-nAChRs (Homo sapiens)?
20

Recall the recorded Fold increase in α7-nAChR agonist potency over lead compound TTIn-1 for Nc1ccc(-c2cn(C3CN4CCC3CC4)nn2)cc1 (stereo not shown) with α7-nAChRs (Homo sapiens) and state it.
20

Request body: readout Fold increase in α7-nAChR agonist potency over lead compound TTIn-1, system α7-nAChRs (Homo sapiens), query "c1cc2cc(-c3cn(CCN4CCCCC4)nn3)ccc2[nH]1" . Return the value.
3.5

What measured Fold increase in α7-nAChR agonist potency over lead compound TTIn-1 is associated with Oc1ccc(-c2cn(C3CN4CCC3CC4)nn2)cc1 (stereo not shown) on α7-nAChRs (Homo sapiens)?
20

###

Task for the reader: assign each of the following compounds its reported EC50.
# System tested: 5HT3A receptors (Mus musculus, UniProt P23979)
# Construct: expressed in transfected cells; host or cells: HEK293 cells co-expressing TN-XXL
# Procedure summary: FRET functional assay (agonist/antagonist) using LGIC-CNiFERs
# Format: cell-based
# Study conditions: * partial agonist; >10 = did not pass initial screen; read-out: Agonist EC50 ± SD, 5HT3A
Report the figure in nM without appending any unit label.

// EC50 lookup, key: Oc1ccc(-c2cn(C3CN4CCC3CC4)nn2)cc1 (centres unmarked)
900

What does the record list as EC50 for Nc1ccc(-c2cn(C3CN4CCC3CC4)nn2)cc1 (centres unmarked) ?
1630

Need EC50 of Clc1ccc(-c2cn(C3CN4CCC3CC4)nn2)cc1 (centres unmarked) , thanks.
4900

Quick check: EC50 of c1cc2cc(-c3cn(C4CN5CCC4CC5)nn3)ccc2[nH]1 (centres unmarked) ?
210

###

# System tested: α7-nAChRs (Homo sapiens, UniProt P36544)
# Construct: expressed in transfected cells; host or cells: HEKtsA201 cells co-expressing TN-XXL
# Sequence (P36544 23-502): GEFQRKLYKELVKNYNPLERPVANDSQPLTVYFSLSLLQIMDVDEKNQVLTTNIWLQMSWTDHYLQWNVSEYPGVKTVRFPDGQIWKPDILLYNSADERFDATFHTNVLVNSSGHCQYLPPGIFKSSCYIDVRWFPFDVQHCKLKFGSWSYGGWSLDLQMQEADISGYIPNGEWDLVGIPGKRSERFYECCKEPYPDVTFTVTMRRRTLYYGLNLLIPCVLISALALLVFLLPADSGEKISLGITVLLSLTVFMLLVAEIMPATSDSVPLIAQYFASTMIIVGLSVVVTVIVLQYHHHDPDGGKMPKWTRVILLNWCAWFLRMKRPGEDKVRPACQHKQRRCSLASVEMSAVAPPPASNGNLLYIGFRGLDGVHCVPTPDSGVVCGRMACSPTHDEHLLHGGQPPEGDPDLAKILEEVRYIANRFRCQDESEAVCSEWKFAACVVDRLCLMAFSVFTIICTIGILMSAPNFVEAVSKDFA
# Procedure summary: FRET functional assay (agonist/antagonist) using LGIC-CNiFERs
# Format: cell-based
# Study conditions: functional screening and characterization
Measured endpoint: Functional properties at α7-nAChRs (agonist / antagonist)

Clc1ccc(-c2cn(CCN3CCCCC3)nn2)cc1 [PPRD13] : partial agonists
COc1ccc(-c2cn(CCN3CCCCC3)nn2)cc1 [PPRD3] : partial agonists

###

# System tested: α4β2-nAChRs (Homo sapiens, UniProt P17787+P43681)
# Construct: expressed in transfected cells; host or cells: HEKtsA201 cells co-expressing TN-XXL
# Sequence (P43681 29-627 limits assumed): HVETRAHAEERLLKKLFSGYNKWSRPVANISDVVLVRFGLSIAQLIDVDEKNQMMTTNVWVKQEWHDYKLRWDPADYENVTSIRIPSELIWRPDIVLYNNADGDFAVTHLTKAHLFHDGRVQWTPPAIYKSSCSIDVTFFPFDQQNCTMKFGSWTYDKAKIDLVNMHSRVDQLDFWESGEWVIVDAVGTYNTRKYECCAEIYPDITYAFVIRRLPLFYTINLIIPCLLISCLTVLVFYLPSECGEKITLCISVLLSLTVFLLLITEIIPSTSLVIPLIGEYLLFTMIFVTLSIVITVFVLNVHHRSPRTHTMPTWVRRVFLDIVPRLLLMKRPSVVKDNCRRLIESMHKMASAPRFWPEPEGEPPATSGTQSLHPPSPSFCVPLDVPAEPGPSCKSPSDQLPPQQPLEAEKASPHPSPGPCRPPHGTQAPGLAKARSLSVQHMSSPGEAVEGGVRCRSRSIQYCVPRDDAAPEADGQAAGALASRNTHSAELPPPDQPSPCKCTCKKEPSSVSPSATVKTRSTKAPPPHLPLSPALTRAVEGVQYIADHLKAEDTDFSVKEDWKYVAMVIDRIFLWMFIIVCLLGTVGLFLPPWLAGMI
# Sequence (P17787 26-502): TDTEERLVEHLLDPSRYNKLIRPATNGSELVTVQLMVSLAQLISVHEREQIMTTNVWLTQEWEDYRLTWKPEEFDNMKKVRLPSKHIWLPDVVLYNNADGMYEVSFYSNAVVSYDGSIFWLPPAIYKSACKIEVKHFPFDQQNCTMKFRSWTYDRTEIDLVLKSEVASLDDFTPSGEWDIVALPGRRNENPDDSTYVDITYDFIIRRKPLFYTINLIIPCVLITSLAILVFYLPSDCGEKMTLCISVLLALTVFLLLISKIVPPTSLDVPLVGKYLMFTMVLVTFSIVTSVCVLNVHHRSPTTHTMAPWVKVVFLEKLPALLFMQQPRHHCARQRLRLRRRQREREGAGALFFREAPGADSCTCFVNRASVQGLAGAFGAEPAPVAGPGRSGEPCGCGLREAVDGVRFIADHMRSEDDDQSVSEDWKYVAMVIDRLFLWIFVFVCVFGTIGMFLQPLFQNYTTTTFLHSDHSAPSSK
# Procedure summary: FRET functional assay (agonist/antagonist) using LGIC-CNiFERs
# Assay type: cell-based
# Study conditions: read-out: Antagonist KA ± SD, α4β2
Please go through the items and note down their Kd.

Please look up its Kd: "COc1ccc2cc(-c3cn(CCN4CCCCC4)nn3)ccc2c1"
> 10 µM

Using the record for "c1cc2c(cc1-c1cn(CCN3CCCCC3)nn1)OCO2" , report its Kd.
> 10 µM

What does the record list as Kd for "COC(=O)c1ccc2[nH]cc(-c3cn(CCN4CCCCC4)nn3)c2c1" ?
6.5 µM

So what does the record say about Kd for "Clc1ccc(-c2cn(CCN3CCCCC3)nn2)cc1" ?
> 10 µM

Entry "COC(=O)c1cc(-c2cn(CCN3CCCCC3)nn2)ccc1O" has what Kd?
> 10 µM

Look up Kd: "c1ccc(-c2ccc(-c3cn(CCN4CCCCC4)nn3)cc2)cc1"
> 10 µM

Value lookup for Kd; key = "Nc1ncnc2c1ncn2Cc1cn(CCN2CCCCC2)nn1"
> 10 µM

What value of measured Kd is listed for "c1cc2cc(-c3cn(CCN4CCCCC4)nn3)ccc2[nH]1" ?
> 10 µM

Field request: Kd | item: "COc1ccc(-c2cn(CCN3CCCCC3)nn2)cc1"
> 10 µM

Reported Kd, compound "O=Cc1c[nH]c2ccc(-c3cn(CCN4CCCCC4)nn3)cc12" : ____
> 10 µM

Query (compound): "COC(=O)c1cc(-c2cn(CCN3CCCCC3)nn2)ccc1N" ; field requested: Kd
> 10 µM

Can you look up the measured Kd of "Cc1ccc(-c2cn(CCN3CCCCC3)nn2)cc1" for me?
> 10 µM

###

# System tested: α7/5HT3A chimera receptor (hα7/m5HT3A), used for α7-nAChRs (UniProt P23979+P36544, M226I/T225I)
# Sequence (P36544+P23979 fused P36544:T225I/P36544:M226I): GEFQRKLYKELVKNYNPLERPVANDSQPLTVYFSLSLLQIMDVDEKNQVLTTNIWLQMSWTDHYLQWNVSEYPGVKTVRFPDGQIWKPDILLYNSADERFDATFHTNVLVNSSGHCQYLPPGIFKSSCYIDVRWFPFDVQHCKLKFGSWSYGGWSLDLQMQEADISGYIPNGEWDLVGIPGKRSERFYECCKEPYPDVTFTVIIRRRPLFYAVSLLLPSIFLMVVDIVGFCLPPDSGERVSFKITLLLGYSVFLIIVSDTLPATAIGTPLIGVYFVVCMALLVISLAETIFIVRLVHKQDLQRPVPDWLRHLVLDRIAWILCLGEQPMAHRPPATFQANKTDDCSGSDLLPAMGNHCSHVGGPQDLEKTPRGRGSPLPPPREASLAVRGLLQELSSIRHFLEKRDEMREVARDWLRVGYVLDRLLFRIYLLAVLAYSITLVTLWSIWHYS
# Procedure summary: Intact cell competitive radioligand binding assay ([3H]-(±)-epibatidine, SPA), LGIC-CNiFERs
# Study conditions: read-out: Kd ± SD, α7-nAChRs; >10 = did not pass initial screen at 10 μM
Measured endpoint: Kd (µM)
Write the value in µM as a bare number.

I am curious: what Kd value has been reported for Cn1ccc2cc(-c3cn(CCN4CCCCC4)nn3)ccc21 [PPRD9] ?
12.1

Value lookup for Kd; key = c1cc2cc(-c3cn(CCN4CCCC4)nn3)ccc2[nH]1 [IND13]
4.84

Name the reported Kd value associated with the compound c1cc2cc(-c3cn(C4CN5CCC4CC5)nn3)ccc2[nH]1 (stereo not shown) [IND8]
0.12

I would be grateful if you could share the reported Kd for Cn1ccc2cc(-c3cn(C4CN5CCC4CC5)nn3)ccc21 (stereo not shown) [QND9] .
1.88

Name the recorded Kd for CN1[C@@H]2CCC[C@H]1CC(n1cc(-c3ccc4[nH]ccc4c3)nn1)C2 (stereo partly shown) [IND7] .
4.52

Which Kd is listed for O=C(N[C@H]1CN2CCC1CC2)c1ccc(Cl)cc1 [PNU-282987, reference compound] ?
0.27

# lookup: Kd of CN1CCCC(n2cc(-c3ccc4[nH]ccc4c3)nn2)C1 (stereo not shown) [IND11]
5.07

Which Kd is listed for c1cc2c(cc1-c1cn(C3CN4CCC3CC4)nn1)OCO2 (stereo not shown) [QND1] ?
0.16

Any idea what Kd was measured for COC(=O)c1cc(-c2cn(C3CN4CCC3CC4)nn2)ccc1N (stereo not shown) [QND15] ?
3.61

For CN(C)CCn1cc(-c2ccc3[nH]ccc3c2)nn1 [IND12] , what is its reported Kd?
7.68

Please give the measured Kd for this compound: COC(=O)c1cc(-c2cn(CCN3CCCCC3)nn2)ccc1N [PPRD15]
4.4

Using the record for c1cc2cc(-c3cn(CCCCN4CCCCC4)nn3)ccc2[nH]1 [IND3] , report its Kd.
13.8

I would be grateful if you could share the reported Kd for c1ccc2c(-c3cn(C4CN5CCC4CC5)nn3)c[nH]c2c1 (stereo not shown) [QND12] .
0.92

Returns the measured Kd for the input compound. Input: O=Cc1c[nH]c2ccc(-c3cn(CCN4CCCCC4)nn3)cc12 [PPRD5]
3.27

Endpoint output: Kd of c1cc2cc(-c3cn(CCCN4CCCCC4)nn3)ccc2[nH]1 [IND2] . Value?
7.2

###

Task for the reader: assign each of the following compounds its reported EC50.
# System tested: 5HT3A receptors (Mus musculus, UniProt P23979)
# Construct: expressed in transfected cells; host or cells: HEK293 cells co-expressing TN-XXL
# Sequence (P23979 24-489): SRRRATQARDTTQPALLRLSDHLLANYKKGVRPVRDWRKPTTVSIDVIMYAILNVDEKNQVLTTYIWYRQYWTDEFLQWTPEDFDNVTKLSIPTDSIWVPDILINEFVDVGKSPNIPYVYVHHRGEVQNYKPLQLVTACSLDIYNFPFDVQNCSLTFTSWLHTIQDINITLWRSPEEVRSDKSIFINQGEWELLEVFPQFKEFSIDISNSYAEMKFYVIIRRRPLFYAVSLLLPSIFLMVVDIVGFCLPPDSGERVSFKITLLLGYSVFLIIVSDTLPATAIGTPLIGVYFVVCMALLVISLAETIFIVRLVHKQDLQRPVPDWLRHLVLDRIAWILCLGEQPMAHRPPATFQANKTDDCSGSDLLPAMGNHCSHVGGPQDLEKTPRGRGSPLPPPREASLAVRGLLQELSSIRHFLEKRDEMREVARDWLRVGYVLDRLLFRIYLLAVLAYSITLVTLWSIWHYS
# Procedure summary: FRET functional assay (agonist/antagonist) using LGIC-CNiFERs
# Type: cell-based
# Study conditions: read-out: Agonist EC50 ± SD, 5HT3A

Requested field: EC50. Item: O=Cc1c[nH]c2ccc(-c3cn(CCN4CCCCC4)nn3)cc12 [PPRD5]
> 10 µM

# input compound: c1ccc(-c2ccc(-c3cn(C4CN5CCC4CC5)nn3)cc2)cc1 (stereo not drawn) [QND7] ; wanted: its EC50
> 10 µM

# input compound: c1cc2c(cc1-c1cn(C3CN4CCC3CC4)nn1)OCO2 (stereo not drawn) [QND1] ; wanted: its EC50
0.3 µM

Which value of EC50 has been reported for COc1ccc(-c2cn(CCN3CCCCC3)nn2)cc1 [PPRD3] in the records?
> 10 µM

Data request, read-out EC50, for c1ccc2c(-c3cn(C4CN5CCC4CC5)nn3)c[nH]c2c1 (stereo not drawn) [QND12]
0.34 µM

Give the measured EC50 of COC(=O)c1cc(-c2cn(C3CN4CCC3CC4)nn2)ccc1N (stereo not drawn) [QND15] .
0.26 µM

Return reported EC50; argument: c1ccc(-c2ccc(-c3cn(CCN4CCCCC4)nn3)cc2)cc1 [PPRD7]
> 10 µM

EC50 lookup needed for O=Cc1c[nH]c2ccc(-c3cn(C4CN5CCC4CC5)nn3)cc12 (stereo not drawn) [QND5] , thanks.
0.16 µM

Look up EC50 for this compound: COc1ccc2cc(-c3cn(C4CN5CCC4CC5)nn3)ccc2c1 (stereo not drawn) [QND6]
> 10 µM

Entry COC(=O)c1ccc2[nH]cc(-c3cn(CCN4CCCCC4)nn3)c2c1 [PPRD11] has what EC50?
> 10 µM

Would you kindly share the measured EC50 for Cc1ccc(-c2cn(CCN3CCCCC3)nn2)cc1 [PPRD4] ?
> 10 µM

Given the entry c1cc2c(cc1-c1cn(CCN3CCCCC3)nn1)OCO2 [PPRD1] , report its measured EC50.
> 10 µM

Consider the compound Clc1ccc(-c2cn(CCN3CCCCC3)nn2)cc1 [PPRD13] and give its measured EC50.
> 10 µM

Reported EC50 for COc1ccc2cc(-c3cn(CCN4CCCCC4)nn3)ccc2c1 [PPRD6] : what is it?
> 10 µM

Form field: reported EC50 of Cn1ccc2cc(-c3cn(C4CN5CCC4CC5)nn3)ccc21 (stereo not drawn) [QND9]
1.38 µM

Which measured EC50 value corresponds to Nc1ncnc2c1ncn2Cc1cn(CCN2CCCCC2)nn1 [PPRD10] ?
> 10 µM

Param item = Nc1ncnc2c1ncn2Cc1cn(C2CN3CCC2CC3)nn1 (stereo not drawn) [QND10] ; retrieve measured EC50.
> 10 µM

What value of EC50 has been reported for the following compound? c1cc2cc(-c3cn(CCN4CCCCC4)nn3)ccc2[nH]1 [IND1]
> 10 µM
